- Assay info: in vitro
- Condition: human
Attribute: CC50

See these solved cases before continuing.
CC(C)OC(=O)[C@H](C)NP(=O)(OC[C@H]1O[C@@H](n2ccc(=O)[nH]c2=O)[C@](F)(Br)[C@@H]1O)Oc1ccccc1 (some centres unmarked)    > 100 µM
O=c1ccn([C@@H]2O[C@H](CO)[C@@H](O)[C@@]2(F)Cl)c(=O)[nH]1    > 100 µM
CC(C)OC(=O)[C@H](C)NP(=O)(OC[C@H]1O[C@@H](n2ccc(=O)[nH]c2=O)[C@@](F)(Cl)[C@@H]1O)Oc1ccccc1 (some centres unmarked)    > 100 µM
CC(C)OC(=O)[C@H](C)NP(=O)(OC[C@H]1O[C@@H](n2ccc(=O)[nH]c2=O)C(Cl)(Cl)[C@@H]1O)Oc1ccccc1 (some centres unmarked)    > 100 µM
O=c1ccn([C@@H]2O[C@H](CO)[C@@H](O)[C@]2(F)Br)c(=O)[nH]1    > 100 µM
CC(C)OC(=O)[C@H](C)N[P@](=O)(OC[C@H]1O[C@@H](n2ccc(=O)[nH]c2=O)[C@@](F)(Br)[C@@H]1O)Oc1ccccc1    > 100 µM
O=c1ccn([C@@H]2O[C@H](CO)[C@@H](O)[C@]2(F)Cl)c(=O)[nH]1    > 100 µM
O=c1ccn([C@@H]2O[C@H](CO)[C@@H](O)C2(Cl)Cl)c(=O)[nH]1    > 100 µM
CC(C)OC(=O)[C@H](C)N[P@](=O)(OC[C@H]1O[C@@H](n2ccc(=O)[nH]c2=O)[C@](C)(F)[C@@H]1O)Oc1ccccc1 [Sofosbuvir, sofosbuvir, reference compound]    > 100 µM
CC(C)OC(=O)[C@H](C)NP(=O)(OC[C@H]1O[C@@H](n2ccc(=O)[nH]c2=O)[C@](F)(Cl)[C@@H]1O)Oc1ccccc1 (some centres unmarked)    > 100 µM

Lab note: next compound to report on.
In: Need CC50 of O=c1ccn([C@@H]2O[C@H](CO)[C@@H](O)[C@@]2(F)Br)c(=O)[nH]1 , thanks.
Out: > 100 µM

====

- Assay info: in vitro
- Condition: human
Measured attribute: viability at 100 µM (%)
Just the number in %, nothing appended.

In: Need viability at 100 µM of CC(C)OC(=O)[C@H](C)N[P@](=O)(OC[C@H]1O[C@@H](n2ccc(=O)[nH]c2=O)[C@@](F)(Br)[C@@H]1O)Oc1ccccc1 [Compound 9] , thanks.
Out: 84.3

====

- System: YFV
- Assay info: microbe, parasite or virus in culture
- Type: cell-based, Yellow fever virus strain 17D
- Condition: Yellow fever virus, Macrophage, read-out: EC50, YFV replication in MDM
Attribute: EC50
Just the number in nM, nothing appended.

CC(C)OC(=O)[C@H](C)N[P@](=O)(OC[C@H]1O[C@@H](n2ccc(=O)[nH]c2=O)[C@](C)(F)[C@@H]1O)Oc1ccccc1 [Sofosbuvir, sofosbuvir, reference compound]    400

Lab note: next compound to report on.
In: Need EC50 of CC(C)OC(=O)[C@H](C)N[P@](=O)(OC[C@H]1O[C@@H](n2ccc(=O)[nH]c2=O)[C@@](F)(Br)[C@@H]1O)Oc1ccccc1 , thanks.
Out: 400

====

- Test system: Huh-7 cells
- Condition: human
Attribute: NTP formation in Huh-7 cells
Just the number in pmol / 10^6 cells, nothing appended.

CC(C)OC(=O)[C@H](C)N[P@](=O)(OC[C@H]1O[C@@H](n2ccc(=O)[nH]c2=O)[C@](C)(F)[C@@H]1O)Oc1ccccc1 [Sofosbuvir, sofosbuvir, reference compound]    317.2
CC(C)OC(=O)[C@H](C)NP(=O)(OC[C@H]1O[C@@H](n2ccc(=O)[nH]c2=O)C(Cl)(Cl)[C@@H]1O)Oc1ccccc1 (some centres unmarked) [Compound 3]    39.7
O=c1ccn([C@@H]2O[C@H](CO)[C@@H](O)C2(Cl)Cl)c(=O)[nH]1 [Compound 2]    0.5
CC(C)OC(=O)[C@H](C)NP(=O)(OC[C@H]1O[C@@H](n2ccc(=O)[nH]c2=O)[C@@](F)(Cl)[C@@H]1O)Oc1ccccc1 (some centres unmarked) [Compound 5]    866.2

Lab note: next compound to report on.
In: Which NTP formation in Huh-7 cells is reported with Huh-7 cells for this entry: O=c1ccn([C@@H]2O[C@H](CO)[C@@H](O)[C@]2(F)Cl)c(=O)[nH]1 [Compound 4] ?
Out: 0.5

====

- System: Huh-7 cells
- Condition: human
Measured attribute: CC50 (µM)
Just the number in µM, nothing appended.

In: Need CC50 of CC(C)OC(=O)[C@H](C)N[P@](=O)(OC[C@H]1O[C@@H](n2ccc(=O)[nH]c2=O)[C@](C)(F)[C@@H]1O)Oc1ccccc1 [Sofosbuvir, sofosbuvir, reference compound] , thanks.
Out: 88.5

====

- Assay info: in vitro
- Condition: human
Measured attribute: viability at 100 µM (%)
Just the number in %, nothing appended.

In: Need viability at 100 µM of CC(C)OC(=O)[C@H](C)N[P@](=O)(OC[C@H]1O[C@@H](n2ccc(=O)[nH]c2=O)[C@@](F)(Br)[C@@H]1O)Oc1ccccc1 , thanks.
Out: 87.1
